Each recorded value in this set is attributed to patent US8404696B2.

# Test system: thoracic aorta of rats
# experimental-protocol: Relaxing effect on thoracic aorta contracted by phenylephrine (organ bath)
# Set-up: species or system rats of SD species
# experimental-setup: Rattus norvegicus; 67 μg/mL; phenylephrine 0.5 μM; mean n = 3; read-out: Relaxation percentage
attribute-measured: inhibition at 67 µg/mL (%)
Numbers only, in %.

Recorded inhibition at 67 µg/mL, per entry:
smiles-repr: CCCCCCN(CCCCN(CCCn1c(=O)[nH]c2ccccc2c1=O)C(=O)OC(C)(C)C)CCCn1c(=O)[nH]c2ccccc2c1=O
inhibition at 67 µg/mL, %: 40.4
--
smiles-repr: CC(=O)N(CCCCN(CCCn1c(=O)[nH]c2ccccc2c1=O)Cc1ccccc1)CCCn1c(=O)[nH]c2ccccc2c1=O
inhibition at 67 µg/mL, %: 9.3
--
smiles-repr: Cc1ccc(S(=O)(=O)N(CCCCN(CCCn2c(=O)[nH]c3ccccc3c2=O)S(=O)(=O)c2ccc(C)cc2)CCCn2c(=O)[nH]c3ccccc3c2=O)cc1
inhibition at 67 µg/mL, %: 7.1
--
smiles-repr: CC(=O)N(CCCCN(CCCn1c(=O)[nH]c2ccccc2c1=O)C(C)=O)CCCNC(=O)c1ccc(O)cc1
inhibition at 67 µg/mL, %: 2.6

Let's switch to this compound now.
stdin: What measured inhibition at 67 µg/mL goes with CC(C)(C)OC(=O)N(CCCCNCCCn1c(=O)[nH]c2ccccc2c1=O)CCCn1c(=O)[nH]c2ccccc2c1=O ?
stdout: 10.9
